// provenance: ChEMBL document CHEMBL1128503

- TESTED ON: Sodium-dependent dopamine transporter (Rattus norvegicus)
- Sequence (P23977 whole entry): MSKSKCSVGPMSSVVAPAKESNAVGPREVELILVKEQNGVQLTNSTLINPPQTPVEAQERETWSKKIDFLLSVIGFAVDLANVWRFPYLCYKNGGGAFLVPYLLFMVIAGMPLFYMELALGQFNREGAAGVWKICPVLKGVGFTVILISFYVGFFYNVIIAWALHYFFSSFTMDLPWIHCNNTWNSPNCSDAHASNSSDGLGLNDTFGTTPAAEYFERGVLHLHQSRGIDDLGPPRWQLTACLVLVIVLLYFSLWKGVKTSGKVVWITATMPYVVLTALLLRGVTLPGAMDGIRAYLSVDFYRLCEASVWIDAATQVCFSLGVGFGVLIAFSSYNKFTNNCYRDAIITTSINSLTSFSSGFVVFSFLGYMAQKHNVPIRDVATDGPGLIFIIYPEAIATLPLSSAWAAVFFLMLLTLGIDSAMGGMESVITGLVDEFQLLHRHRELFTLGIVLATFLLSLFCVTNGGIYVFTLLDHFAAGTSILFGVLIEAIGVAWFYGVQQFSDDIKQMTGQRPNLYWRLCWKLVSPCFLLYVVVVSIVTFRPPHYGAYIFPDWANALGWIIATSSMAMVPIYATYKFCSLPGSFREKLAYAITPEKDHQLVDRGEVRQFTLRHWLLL
- ASSAY METHOD TEXT: Binding affinity towards dopamine transporter using [3H]-mazindol as radioligand in rat striatal membranes.
- Format: cell membranes
Dear colleague, classification is by Ki, with ranges listed here: band 1 (below 0.8 nM), band 2 (0.8 nM to below 1 nM), band 3 (1 nM or more)

Which band does CCC[C@@H]1C2CCC(C[C@@H]1c1ccccc1)N2C (stereo not given in full) fall in?
band 3

Category lookup for the compound COC(=O)C1C2CC[C@H](C[C@@H]1c1ccc(Cl)cc1)N2C (stereo not given in full)
band 2

Textbook exercise: identify the category of the compound given here, CC[C@@H]1C2CCC(C[C@@H]1c1ccc(Cl)cc1)N2C (stereo not given in full) , according to its measured value.
band 3

State the band of CN1C2CCC1[C@@H](/C=C/Cl)[C@@H](c1ccc(Cl)cc1)C2 (stereo not given in full)
band 1

Lab log: C=C[C@@H]1C2CCC(C[C@@H]1c1ccc(Cl)cc1)N2C (stereo not given in full) — assign Ki category
band 1

Hello team, could you let me know which band the following compound falls into: CCC[C@@H]1C2CCC(C[C@@H]1c1ccc(Cl)cc1)N2C (stereo not given in full)
band 2

Which category fits this record: CN1C2CCC1[C@@H](/C=C\Cl)[C@@H](c1ccc(Cl)cc1)C2 (stereo not given in full)
band 1

Given CCCC[C@@H]1C2CCC(C[C@@H]1c1ccc(Cl)cc1)N2C (stereo not given in full) , name the class its Ki places it in.
band 3

Sort CCCCCC[C@@H]1C2CCC(C[C@@H]1c1ccc(Cl)cc1)N2C (stereo not given in full) into one of the categories.
band 3

// return the class label for CN1C2CCC1[C@@H](CCc1ccccc1)[C@@H](c1ccc(Cl)cc1)C2 (stereo not given in full)
band 3

###

- TESTED ON: UniProtKB P23977
- ASSAY METHOD TEXT: Inhibition of [3H]dopamine […] to rat striatal synaptosome dopamine transporter
- Type: tissue-based, Brain
What pKi was measured for each of the following?
The meaning of pKi here: minus log10 of the concentration in molar units.

Recorded pKi for C=C[C@@H]1C2CCC(C[C@@H]1c1ccc(Cl)cc1)N2C (stereo not given in full) with UniProtKB P23977, please?
8.61

# returns recorded pKi (system: UniProtKB P23977) for COC(=O)C1C2CC[C@H](C[C@@H]1c1ccc(Cl)cc1)N2C (stereo not given in full)
8.55

Please provide the recorded pKi for CC[C@@H]1C2CCC(C[C@@H]1c1ccc(Cl)cc1)N2C (stereo not given in full) , tested on UniProtKB P23977.
8.63

// map CN1C2CCC1[C@@H](/C=C/Cl)[C@@H](c1ccc(Cl)cc1)C2 (stereo not given in full) to recorded pKi (system: UniProtKB P23977)
8.95

Please state recorded pKi (tested on UniProtKB P23977) of CCCCCC[C@@H]1C2CCC(C[C@@H]1c1ccc(Cl)cc1)N2C (stereo not given in full)
6.57

Find pKi (UniProtKB P23977) for the entry CN1C2CCC1[C@@H](/C=C\Cl)[C@@H](c1ccc(Cl)cc1)C2 (stereo not given in full)
9.06

Query for UniProtKB P23977: what pKi does the record show for CCC[C@@H]1C2CCC(C[C@@H]1c1ccccc1)N2C (stereo not given in full) ?
8.79

For UniProtKB P23977, provide pKi of CCCC[C@@H]1C2CCC(C[C@@H]1c1ccc(Cl)cc1)N2C (stereo not given in full) please.
9.08

Observed pKi on UniProtKB P23977 for CN1C2CCC1[C@@H](CCc1ccccc1)[C@@H](c1ccc(Cl)cc1)C2 (stereo not given in full) , please.
8.81

Please tell me: pKi of CCC[C@@H]1C2CCC(C[C@@H]1c1ccc(Cl)cc1)N2C (stereo not given in full) , system UniProtKB P23977?
8.97
